# system tested: T1, human IL-12 (human, UniProt P29460 23-328; P29459 23-219)
# T1 construct: Recombinant (Peprotech); FLAG-tagged IL-12 in the flow cytometry assays, biotinylated in the IL-12Rβ2 assay; also called hIL-12
# T1 sequence 1: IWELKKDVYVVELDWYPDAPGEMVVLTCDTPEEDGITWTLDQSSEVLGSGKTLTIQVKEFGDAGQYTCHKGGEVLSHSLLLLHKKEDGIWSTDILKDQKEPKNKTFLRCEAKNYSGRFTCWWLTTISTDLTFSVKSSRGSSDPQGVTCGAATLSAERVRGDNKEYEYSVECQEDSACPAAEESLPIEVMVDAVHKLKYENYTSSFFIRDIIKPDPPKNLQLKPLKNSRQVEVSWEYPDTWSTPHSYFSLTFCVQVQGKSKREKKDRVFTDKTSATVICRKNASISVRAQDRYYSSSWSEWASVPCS
# T1 sequence 2: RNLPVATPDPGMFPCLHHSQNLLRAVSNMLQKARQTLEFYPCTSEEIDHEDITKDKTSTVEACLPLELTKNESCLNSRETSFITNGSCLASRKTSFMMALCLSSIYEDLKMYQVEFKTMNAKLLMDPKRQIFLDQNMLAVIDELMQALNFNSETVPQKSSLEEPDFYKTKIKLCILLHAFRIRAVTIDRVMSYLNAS
# assay info: SPR, single 81 nM analyte, scFv via FLAG
This listing pairs binders with measured koff.
parameter measured: koff (s⁻¹)

binder	parameter measured	measured value
scFv combo. # 4 (scFv, scFv-80 with VH F29L; VL S26P; not shown: proprietary C-terminal FLAG tag) scFv: QVQLVQSGAEVKKPGASVKVSCKASGYTLTDYYLHWVRQAPGQGLEWMGWIDPENGDTEYAPKFQGRVTMTTDTSTSTAYMELRSLRSDDTAVYYCNANKELRYFDVWGQGTMVTVSSGGGGSGGGGSGGGGSEIVMTQSPATLSVSPGERATLSCRAPQSISINLHWYQQKPGQAPRLLIYFASQSISGIPARFSGSGSGTEFTLTISSLQSEDFAVYYCQQSNSFPLTFGGGTKVEIKR	koff	4.8e-05
scFv combo. # 16 (scFv, scFv-80 with VH F29L; VL S52R; not shown: proprietary C-terminal FLAG tag) scFv: QVQLVQSGAEVKKPGASVKVSCKASGYTLTDYYLHWVRQAPGQGLEWMGWIDPENGDTEYAPKFQGRVTMTTDTSTSTAYMELRSLRSDDTAVYYCNANKELRYFDVWGQGTMVTVSSGGGGSGGGGSGGGGSEIVMTQSPATLSVSPGERATLSCRASQSISINLHWYQQKPGQAPRLLIYFARQSISGIPARFSGSGSGTEFTLTISSLQSEDFAVYYCQQSNSFPLTFGGGTKVEIKR	koff	7.5e-05
scFv combo. # 5 (scFv, scFv-80 with VH T28A; VL S63F; not shown: proprietary C-terminal FLAG tag) scFv: QVQLVQSGAEVKKPGASVKVSCKASGYAFTDYYLHWVRQAPGQGLEWMGWIDPENGDTEYAPKFQGRVTMTTDTSTSTAYMELRSLRSDDTAVYYCNANKELRYFDVWGQGTMVTVSSGGGGSGGGGSGGGGSEIVMTQSPATLSVSPGERATLSCRASQSISINLHWYQQKPGQAPRLLIYFASQSISGIPARFFGSGSGTEFTLTISSLQSEDFAVYYCQQSNSFPLTFGGGTKVEIKR	koff	6.5e-05
scFv combo. # 15 (scFv, scFv-80 with VH F29L; VL S63F; not shown: proprietary C-terminal FLAG tag) scFv: QVQLVQSGAEVKKPGASVKVSCKASGYTLTDYYLHWVRQAPGQGLEWMGWIDPENGDTEYAPKFQGRVTMTTDTSTSTAYMELRSLRSDDTAVYYCNANKELRYFDVWGQGTMVTVSSGGGGSGGGGSGGGGSEIVMTQSPATLSVSPGERATLSCRASQSISINLHWYQQKPGQAPRLLIYFASQSISGIPARFFGSGSGTEFTLTISSLQSEDFAVYYCQQSNSFPLTFGGGTKVEIKR	koff	6.4e-05
scFv combo. # 3 (scFv, scFv-80 with VH T28A; VL S26P; not shown: proprietary C-terminal FLAG tag) scFv: QVQLVQSGAEVKKPGASVKVSCKASGYAFTDYYLHWVRQAPGQGLEWMGWIDPENGDTEYAPKFQGRVTMTTDTSTSTAYMELRSLRSDDTAVYYCNANKELRYFDVWGQGTMVTVSSGGGGSGGGGSGGGGSEIVMTQSPATLSVSPGERATLSCRAPQSISINLHWYQQKPGQAPRLLIYFASQSISGIPARFSGSGSGTEFTLTISSLQSEDFAVYYCQQSNSFPLTFGGGTKVEIKR	koff	4.5e-05
